Measured MIC accompanies every entry in the list below.
- Tested on: E. coli ATCC 25922

>>> measured("NCC(=O)N[C@@H]1C[C@H](N)[C@@H](O[C@H]2O[C@H](CN)CC[C@H]2N)[C@H](O[C@@H]2O[C@H](CO)[C@@H](O[C@H]3O[C@@H](CN)CC[C@H]3N)[C@H]2O)[C@H]1O [Example 19/Compound 3]")
"1 to 16 µg/mL"

The molecule NCC[C@H](O)C(=O)N[C@@H]1C[C@H](N)[C@@H](O[C@H]2O[C@H](CN)CC[C@H]2N)[C@H](O[C@@H]2O[C@H](CO)[C@@H](O[C@H]3O[C@H](CN)CC[C@H]3N)[C@H]2O)[C@H]1O [Example 6/Compound 9] on E. coli ATCC 25922: MIC was 1 to 16 µg/mL
